// data source = patent US8883793B2

Below is a list of entries, each paired with its recorded Inhibition rate (%) (colchicine competitive-binding) value.
# System: biotinylated tubulin
# assay-comment: Colchicine competitive-binding assay
# conditions: at 10 μM concentration; 3H-colchicine; right column pair of Table 7
Dear colleague, please return just the value in %, with no unit written.

Use these answered entries as a reference point.
> print(dat)
                                   compound  test.result
1  O=C(CCc1ccccc1)Nc1ccc(Sc2ccccc2)cn1 [Compound 81]         70.0
2  O=C(CCc1ccccc1)Nc1ccc(-n2ccc3ccccc32)cn1 [Compound 79]         90.0
3  Cc1ccc(CCC(=O)Nc2ccc(Br)cn2)o1 [Compound 123]         78.4

## Task State the recorded Inhibition rate (%) (colchicine competitive-binding) for this entry: Cc1ccc(CCC(=O)Nc2ccc(-c3ccccc3)cn2)o1 [Compound 111]
## Result 96.4

## Task State the recorded Inhibition rate (%) (colchicine competitive-binding) for this entry: COc1ccc(Sc2ccc(NC(=O)CCc3ccc(C)o3)nc2)cc1 [Compound 83]
## Result 91.9

## Task State the recorded Inhibition rate (%) (colchicine competitive-binding) for this entry: Cc1ccc(CCC(=O)Nc2ccc(-n3ccnc3)cn2)o1 [Compound 77]
## Result 99.8

## Task State the recorded Inhibition rate (%) (colchicine competitive-binding) for this entry: Cc1ccc(CCC(=O)Nc2ccc(-c3ccc(F)cc3)cn2)o1 [Compound 112]
## Result 87.8

## Task State the recorded Inhibition rate (%) (colchicine competitive-binding) for this entry: Cc1ccc(CCC(=O)Nc2ncc(-c3ccc(F)cc3)cn2)o1 [Compound 105]
## Result 99.3

## Task State the recorded Inhibition rate (%) (colchicine competitive-binding) for this entry: Cc1ccc(CCC(=O)Nc2ncc(-n3ccnc3)cc2C)o1 [Compound 87]
## Result 54.6

## Task State the recorded Inhibition rate (%) (colchicine competitive-binding) for this entry: Cc1cc(-c2ccc(N(C)C)cc2)cnc1NC(=O)CCc1ccccc1 [Compound 119]
## Result 58.2

## Task State the recorded Inhibition rate (%) (colchicine competitive-binding) for this entry: Cc1ccc(CCC(=O)Nc2ncc(-c3cccc4ccccc34)cn2)o1 [Compound 103]
## Result 81.1

## Task State the recorded Inhibition rate (%) (colchicine competitive-binding) for this entry: COc1cccc(-c2cnc(NC(=O)CCc3ccc(C)o3)nc2)c1OC [Compound 100]
## Result 83.4

## Task State the recorded Inhibition rate (%) (colchicine competitive-binding) for this entry: Cc1ccc(CCC(=O)Nc2ccc(SCc3ccccc3)cn2)o1 [Compound 85]
## Result 92.6

## Task State the recorded Inhibition rate (%) (colchicine competitive-binding) for this entry: O=C(/C=C/c1ccccc1)Nc1ncc(-c2ccccc2)cn1 [Compound 93]
## Result 57.2

## Task State the recorded Inhibition rate (%) (colchicine competitive-binding) for this entry: Cc1ccc(CCC(=O)Nc2ncc(-c3ccccc3)cc2C)o1 [Compound 118]
## Result 99.7

## Task State the recorded Inhibition rate (%) (colchicine competitive-binding) for this entry: O=C(/C=C/c1ccccc1)Nc1ncc(-c2ccc(F)cc2)cn1 [Compound 98]
## Result 57.5

## Task State the recorded Inhibition rate (%) (colchicine competitive-binding) for this entry: COc1ccc(Sc2ccc(NC(=O)CCc3ccccc3)nc2)cc1 [Compound 84]
## Result 88.0

## Task State the recorded Inhibition rate (%) (colchicine competitive-binding) for this entry: Cc1ccc(CCC(=O)Nc2ncc(-c3ccc(N(C)C)cc3)cn2)o1 [Compound 106]
## Result 70.1

## Task State the recorded Inhibition rate (%) (colchicine competitive-binding) for this entry: Cc1ccc(CCC(=O)Nc2ncc(Br)cc2C)o1 [Compound 124]
## Result 74.8

## Task State the recorded Inhibition rate (%) (colchicine competitive-binding) for this entry: O=C(CCc1ccccc1)Nc1ncc(-c2ccccc2)cn1 [Compound 94]
## Result 82.9

## Task State the recorded Inhibition rate (%) (colchicine competitive-binding) for this entry: COc1cccc(-c2cnc(NC(=O)CCc3ccccc3)nc2)c1OC [Compound 102]
## Result 59.2

## Task State the recorded Inhibition rate (%) (colchicine competitive-binding) for this entry: COc1cccc(-c2cnc(NC(=O)/C=C/c3ccccc3)nc2)c1OC [Compound 101]
## Result 56.9

## Task State the recorded Inhibition rate (%) (colchicine competitive-binding) for this entry: O=C(CCc1ccccc1)Nc1ncc(-c2cccc3ccccc23)cn1 [Compound 104]
## Result 61.3
